- experimentDescription: chemical genetic growth profiling, strain panel (AID 1159580);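 also: tested at 20 µM; growth read once vehicle control cultures reached saturation at 30 °C; 1 = growth at the plate median or of vehicle wells; lower values mean less growth of the strain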
- testSettings: S. cerevisiae deletion strains, growth OD, locus YGL167C, strain pmr1, hits give low values
In all, about 5,500 compounds went through this assay and about 2,000 (36%) were called active. Roughly 18% stayed inconclusive and do not appear here. Some of the results follow. *1 amine or outer side, *2 acyl side, *3 side chain or, on linkers, in order; H or OH if unused. Where a SMILES comes first, the peptide text is derived from it. Bridges are numbered along the chain shown (N, C = ends). [ ]: non-standard residue; d: D form. The star is where a group is joined. ξ: configuration not given here. ΔAla(E,3-NHCONH2) = NC(=O)N/C=C(/N)C(=O)O; X2 = NC1=NCCC(C(N[*:1])C(=O)[*:2])N1; ξβ3hOrn = NCCCC(N)CC(=O)*; Dap = NC[CH](N)C(=O)O

# compound, normalized growth
data = [
    ("COc1cc2c(cc1OC)[C@@]13CCN4CC5=CCOC6CC(=O)N2C1[C@H]6[C@H]5C[C@H]43 (stereo partly drawn)", 0.988),
    ("O=c1oc2c(O)c(O)cc3c(=O)oc4c(O)c(O)cc1c4c23", 0.653),
    ("CC[C@H]1CN2CCc3cc(OC)c(OC)cc3C2C[C@@H]1CC1NCCc2cc(OC)c(OC)cc21 (stereo partly drawn)", 0.96),
    ("NCCCC(N)CC(=O)NCC1NC(=O)C(CO)NC(=O)C(N)CNC(=O)C(C2CCN=C(N)N2)NC(=O)/C(=C\\NC(N)=O)NC1=O (stereo not drawn) (H-[Dap]S[Dap](ξβ3hOrn)[ΔAla(E,3-NHCONH2)][X2]; lactam 1-C; configuration not given here)", 1.02),
    ("CC(=O)[C@@]1(O)CCC2C3CCC4=CC(=O)CC[C@]4(C)C3CC[C@@]21C (stereo partly drawn)", 0.983),
    ("OC(c1cc(C(F)(F)F)nc2c(C(F)(F)F)cccc12)C1CCCCN1 (stereo not drawn)", 1.02),
    ("CCNc1nc(Cl)nc(NCC)n1", 1),
    ("COC(=O)C[C@H]1C(C)(C)[C@@H](O)[C@@H]2CC3=C4C=C(OC)O[C@@H](c5ccoc5)[C@]4(C)CCC3[C@@]1(C)C2=O (stereo partly drawn)", 1.01),
]
